target: ΔF508-CFTR (Homo sapiens, UniProt P13569, DEL508-508); construct: host or cells: CFBE41o-, doxycycline-inducible; experiment: CFTR cell surface levels using HRP-tagged ΔF508-CFTR expressing CFBE cells, in the presence of a co-corrector; format: cell-based; settings: HRP-tagged ΔF508-CFTR CFBE cells, in the presence of 3 μM co-corrector; read-out: EC50
Sequence (P13569 with tags, fused parts or gaps DEL508-508): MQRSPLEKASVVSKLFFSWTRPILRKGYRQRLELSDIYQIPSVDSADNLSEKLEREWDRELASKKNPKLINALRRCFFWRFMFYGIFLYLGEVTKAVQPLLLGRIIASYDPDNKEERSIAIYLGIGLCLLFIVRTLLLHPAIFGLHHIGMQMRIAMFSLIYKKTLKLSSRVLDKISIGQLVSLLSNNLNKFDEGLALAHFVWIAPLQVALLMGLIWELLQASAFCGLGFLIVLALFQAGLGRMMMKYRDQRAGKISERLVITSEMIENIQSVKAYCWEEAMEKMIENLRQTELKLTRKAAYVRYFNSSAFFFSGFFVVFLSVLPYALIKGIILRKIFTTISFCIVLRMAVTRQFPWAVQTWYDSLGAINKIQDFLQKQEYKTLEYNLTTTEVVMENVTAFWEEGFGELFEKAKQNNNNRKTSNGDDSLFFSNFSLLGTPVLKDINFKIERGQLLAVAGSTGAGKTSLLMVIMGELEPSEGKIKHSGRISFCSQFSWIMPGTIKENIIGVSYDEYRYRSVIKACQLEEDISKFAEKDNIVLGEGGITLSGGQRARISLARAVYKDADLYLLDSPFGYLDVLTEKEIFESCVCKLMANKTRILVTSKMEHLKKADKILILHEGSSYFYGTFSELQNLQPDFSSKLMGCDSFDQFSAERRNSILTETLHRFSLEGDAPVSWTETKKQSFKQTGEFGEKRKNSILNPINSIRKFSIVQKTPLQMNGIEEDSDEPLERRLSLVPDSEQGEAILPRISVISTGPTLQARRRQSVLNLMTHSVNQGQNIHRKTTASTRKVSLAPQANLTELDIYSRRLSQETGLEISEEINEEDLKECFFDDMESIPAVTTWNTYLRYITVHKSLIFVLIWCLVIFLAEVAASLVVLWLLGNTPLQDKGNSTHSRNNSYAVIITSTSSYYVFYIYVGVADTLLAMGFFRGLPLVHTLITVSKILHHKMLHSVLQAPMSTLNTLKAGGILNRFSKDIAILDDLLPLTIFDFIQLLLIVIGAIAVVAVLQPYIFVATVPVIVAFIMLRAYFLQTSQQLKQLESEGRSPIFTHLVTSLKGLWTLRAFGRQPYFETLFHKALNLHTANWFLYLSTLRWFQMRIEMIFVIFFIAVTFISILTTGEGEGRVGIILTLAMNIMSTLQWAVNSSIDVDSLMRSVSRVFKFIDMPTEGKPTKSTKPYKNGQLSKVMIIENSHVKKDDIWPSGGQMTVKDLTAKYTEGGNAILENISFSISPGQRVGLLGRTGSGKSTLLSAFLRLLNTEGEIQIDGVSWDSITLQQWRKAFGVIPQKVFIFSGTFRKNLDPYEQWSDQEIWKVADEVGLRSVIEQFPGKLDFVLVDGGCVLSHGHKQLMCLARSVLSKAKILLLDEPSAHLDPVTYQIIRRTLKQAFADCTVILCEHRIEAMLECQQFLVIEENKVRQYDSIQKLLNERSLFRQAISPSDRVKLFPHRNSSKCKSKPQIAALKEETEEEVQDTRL
assay.endpoint: EC50 (µM)
Return type: number; implicit unit µM.

Req: Entry CS(=O)(=O)NC(=O)c1cc(OC[C@H](F)C2CCOCC2)c2c(C3CCC3)nn(-c3ccccc3)c2n1 : reported EC50 = ?
Resp: 0.222

Req: I am curious: what EC50 value has been reported for CN(C)CCCOc1cc(C(=O)NS(C)(=O)=O)nc2c1c(C1CCC1)nn2-c1ccccc1 ?
Resp: 0.834

Req: // lookup EC50 for COCCS(=O)(=O)NC(=O)c1cc(N2CCC(COC)CC2)c2c(C(C)C)nn(CC(C)C)c2n1
Resp: 2.14

Req: Tell me the measured EC50 of COCC1CCN(c2cc(C(=O)NS(C)(=O)=O)nc3c2c(C(C)C)nn3-c2ccnc(N3CCOCC3)n2)CC1 , please.
Resp: 0.227

* * *

biological target: ΔF508-CFTR (Homo sapiens, UniProt P13569, DEL508-508); construct: host or cells: CFBE41o-, doxycycline-inducible; assay: CFTR cell surface levels using HRP-tagged ΔF508-CFTR expressing CFBE cells, in the presence of a co-corrector; assay type: cell-based; conditions: HRP-tagged ΔF508-CFTR CFBE cells, in the presence of 3 μM co-corrector; read-out: EC50
Provide the recorded EC50 for the entries that follow.
Unit nM implied. Number only.

Req: Find the measured EC50: item CC(C)c1nn(-c2ccc(F)cc2)c2nc(C(=O)NS(C)(=O)=O)cc(N3CCNC(C(F)(F)F)C3)c12 (stereo not drawn) , target or system ΔF508-CFTR (Homo sapiens, UniProt P13569, DEL508-508).
Resp: 402

Req: Form entry - test system: ΔF508-CFTR (Homo sapiens, UniProt P13569, DEL508-508); read-out: EC50; compound: COCC1CCN(c2cc(C(=O)NS(=O)(=O)CCO)nc3c2c(C2CCC2)nn3-c2ccccc2)CC1
Resp: 82.7

Req: Requested read-out EC50, target or system ΔF508-CFTR (Homo sapiens, UniProt P13569, DEL508-508), entry CC(C)c1nn(-c2ccnc(N3CCOCC3)c2)c2nc(C(=O)NS(=O)(=O)N(C)C)cc(OCC3CCOCC3)c12
Resp: 241

Req: Find EC50 (ΔF508-CFTR (Homo sapiens, UniProt P13569, DEL508-508)) for the entry CC(C)N(C)S(=O)(=O)NC(=O)c1cc(N2CCC(N3CCOCC3)CC2)c2c(C3CCC3)nn(-c3ccc(F)cc3)c2n1
Resp: 61.6

Req: Quick check: EC50 on ΔF508-CFTR (Homo sapiens, UniProt P13569, DEL508-508), item COC1CCN(C2CCN(c3cc(C(=O)NS(=O)(=O)N4CC(OC)C4)nc4c3c(C3CCC3)nn4-c3ccc(F)cc3)CC2)CC1 ?
Resp: 244

Req: Hello, I am looking for reported EC50 with ΔF508-CFTR (Homo sapiens, UniProt P13569, DEL508-508) for COC1CCN(c2cc(C(=O)NS(C)(=O)=O)nc3c2c(C(C)C)nn3-c2ccc(F)cc2)CC1 . Could you help?
Resp: 81.8

Req: Give ΔF508-CFTR (Homo sapiens, UniProt P13569, DEL508-508) EC50 for CS(=O)(=O)NC(=O)c1cc(N2CCC(N3CCN(C4CC4)CC3)CC2)c2c(C3CCC3)nn(-c3ccccc3)c2n1
Resp: 136

Req: # value lookup — system ΔF508-CFTR (Homo sapiens, UniProt P13569, DEL508-508), readout EC50, item COC(C)C1CCN(c2cc(C(=O)NS(C)(=O)=O)nc3c2c(C2CCC2)nn3-c2ccccc2)CC1 (stereo not drawn)
Resp: 82.2

Req: # get_value(readout= EC50, system= ΔF508-CFTR (Homo sapiens, UniProt P13569, DEL508-508)) for CC(C)c1nn(-c2ccc(F)cc2)c2nc(C(=O)NS(C)(=O)=O)cc(OCCC3CCOCC3)c12
Resp: 246

Req: Query EC50 on ΔF508-CFTR (Homo sapiens, UniProt P13569, DEL508-508) for CN(C)S(=O)(=O)NC(=O)c1cc(N2CCC(N3CCOCC3)CC2)c2c(C3CCC3)nn(-c3cccc(C(F)(F)F)c3)c2n1
Resp: 66.7

Req: # value lookup — system ΔF508-CFTR (Homo sapiens, UniProt P13569, DEL508-508), readout EC50, item CC(C)Oc1nn(C2CCCCC2)c2nc(C(=O)NS(C)(=O)=O)cc(-c3ccc(C(=O)N4CC(N(C)C)C4)cc3)c12
Resp: 107

Req: What value of EC50 on ΔF508-CFTR (Homo sapiens, UniProt P13569, DEL508-508) does CC(C)c1nn(-c2ccc(F)cc2)c2nc(C(=O)NS(C)(=O)=O)cc(N3CCC4(CC3)CN(C)C(=O)O4)c12 have?
Resp: 946

Req: Find the measured EC50: item COCCN(C)c1ccc(-c2cc(C(=O)NS(C)(=O)=O)nc3c2c(C(C)C)nn3-c2cccc(C(F)(F)F)c2)cc1 , target or system ΔF508-CFTR (Homo sapiens, UniProt P13569, DEL508-508).
Resp: 882

Req: # query: EC50 | item CCS(=O)(=O)NC(=O)c1cc(-c2ccc(N3CCOCC3)nc2)c2c(C)nn(-c3ccc(F)cc3F)c2n1 | system: ΔF508-CFTR (Homo sapiens, UniProt P13569, DEL508-508)
Resp: 506

Req: Lab note: need EC50 with ΔF508-CFTR (Homo sapiens, UniProt P13569, DEL508-508) for entry CC(c1ccc(-c2cc(C(=O)NS(=O)(=O)N(C)C)nc3c2c(C2CCC2)nn3C2CCCCC2)cc1)N1CCOCC1 (stereo not drawn) , please look it up.
Resp: 139

Req: Give recorded EC50 with ΔF508-CFTR (Homo sapiens, UniProt P13569, DEL508-508) for the following compound: CO[C@H]1C[C@@H](c2nn(-c3ccccc3)c3nc(C(=O)NS(C)(=O)=O)cc(-c4ccc(N5CCC(C#N)CC5)nc4)c32)C1
Resp: 371

Req: Find the measured EC50: item COCCS(=O)(=O)NC(=O)c1cc(N2CCC(COC)CC2)c2c(C(C)C)nn(-c3ccc(F)cc3)c2n1 , target or system ΔF508-CFTR (Homo sapiens, UniProt P13569, DEL508-508).
Resp: 93.2

Req: Kindly state the measured EC50 obtained for CN(C)S(=O)(=O)NC(=O)c1cc(N2CCC(CCN3CCOCC3)CC2)c2c(C3CCC3)nn(C3CCCCC3)c2n1 with ΔF508-CFTR (Homo sapiens, UniProt P13569, DEL508-508).
Resp: 166

Req: Request body: readout EC50, system ΔF508-CFTR (Homo sapiens, UniProt P13569, DEL508-508), query CN(C)S(=O)(=O)NC(=O)c1cc(-c2ccc(N3CCN(C4CC4)CC3)nc2)c2c(C3CCC3)nn(C3CCCCC3)c2n1 . Return the value.
Resp: 280

Req: Param readout= EC50; system= ΔF508-CFTR (Homo sapiens, UniProt P13569, DEL508-508); entry= CCS(=O)(=O)NC(=O)c1cc(-c2cnc(N(C)C)nc2)c2c(C3CN(C(=O)OC)C3)nn(C3CCCCC3)c2n1 ; returns value.
Resp: 992

Req: Under ΔF508-CFTR (Homo sapiens, UniProt P13569, DEL508-508): EC50 value of C[C@@H](C1CCN(c2cc(C(=O)NS(=O)(=O)N(C)C)nc3c2c(C2CCC2)nn3-c2ccc(F)cc2)CC1)N1CCOCC1 ?
Resp: 87.1

Req: Query EC50 on ΔF508-CFTR (Homo sapiens, UniProt P13569, DEL508-508) for CO[C@H]1CC[C@@H](Oc2cc(C(=O)NS(C)(=O)=O)nc3c2c(C2CCC2)nn3-c2ccccc2)CC1
Resp: 293

Req: Hi! What's the reported EC50 for CC(C)c1nn(-c2cccc(N3CCOCC3)n2)c2nc(C(=O)NS(C)(=O)=O)cc(-c3ccc(N4CCOCC4)cc3)c12 on ΔF508-CFTR (Homo sapiens, UniProt P13569, DEL508-508)?
Resp: 252

Req: Query for ΔF508-CFTR (Homo sapiens, UniProt P13569, DEL508-508): what EC50 does the record show for COCC1CCN(c2cc(C(=O)NS(=O)(=O)N3CCC(C(=O)N4CCN(C)CC4)CC3)nc3c2c(C2CCC2)nn3-c2ccccc2)CC1 ?
Resp: 73.6

Req: Find EC50 (ΔF508-CFTR (Homo sapiens, UniProt P13569, DEL508-508)) for the entry O=C(NS(=O)(=O)N1CCC(F)C1)c1cc(N2CCC(N3CCOCC3)CC2)c2c(C3CCC3)nn(-c3ccc(F)cc3)c2n1 (stereo not drawn)
Resp: 50.8

Req: Form field - read-out: EC50; system: ΔF508-CFTR (Homo sapiens, UniProt P13569, DEL508-508); submitted item: CCS(=O)(=O)NC(=O)c1cc(N2CCC(N3CCOCC3)CC2)c2c(C3CCC3)nn(-c3ccc(F)cc3)c2n1
Resp: 64.1

Req: Recall the recorded EC50 for CCCN(C)S(=O)(=O)NC(=O)c1cc(OCC2CCOCC2)c2c(C3CCC3)nn(-c3ccccc3)c2n1 with ΔF508-CFTR (Homo sapiens, UniProt P13569, DEL508-508) and state it.
Resp: 232
